# credit: ChEMBL document CHEMBL2157952

- Test system: Leishmania donovani
- Experimental Details: Antileishmanial activity against Leishmania donovani amastigotes infected in mouse J774A.1 cells after 72 hrs by luciferase reporter gene based luminometric analysis
- Assay type: functional, organism-based
- Settings: J774.A1, 72 h
Measured Attribute: pIC50
Just so you know, pIC50 here is -log10 of the concentration in molar units; reply with that number alone.

COc1cc(/C=C/C(=O)C=C(SC)SC)ccc1OCc1ccccc1    5.45

Query: What measured pIC50 goes with CSC(=CC(=O)/C=C/c1cccc([N+](=O)[O-])c1)SC ?
Response: 5.29

---

- Tested on: Leishmania donovani
- Experimental Details: Antileishmanial activity against Leishmania donovani amastigotes infected in mouse J774A.1 cells after 72 hrs by luciferase reporter gene based luminometric analysis
- Format: functional, organism-based
- Settings: J774.A1, 72 h
pIC50: −log10 of the molar value.
Measured Attribute: pIC50

Query: What measured pIC50 goes with CSC(=CC(=O)/C=C/c1ccccc1Cl)SC ?
Response: < 4.40

Query: Continue with CSC(=CC(=O)/C=C/c1ccc(-n2cnnc2)cc1)SC
Response: < 4.70

Query: Continue with CSC(=CC(=O)/C=C/c1ccc(-n2ccnc2)cc1)SC
Response: < 4.40

Query: Continue with CSC(=CC(=O)/C=C/c1ccc(Cl)cc1)SC
Response: < 4.70

Query: Continue with CSC(=CC(=O)/C=C/c1ccc(F)cc1)SC
Response: < 4.40

Query: Continue with CCCCCCCCCCCCCCCCOP(=O)([O-])OCC[N+](C)(C)C [MILTEFOSINE]
Response: 4.90

---

- Experimental Details: Cytotoxicity against human KB cells assessed as cell viability after 72 hrs by MTT assay
- Assay type: cell-based
# CC50 at 72 h per entry
Please respond with the number in µM and leave the unit unwritten.

The following molecules have reported results that may help.
CSC(=CC(=O)/C=C/c1cccc([N+](=O)[O-])c1)SC    9.83
COc1cc(/C=C/C(=O)C=C(SC)SC)ccc1OCc1ccccc1    204

Turning now to a further molecule:
Query: What measured CC50 at 72 h goes with CCCCCCCCCCCCCCCCOP(=O)([O-])OCC[N+](C)(C)C ?
Response: 3.23
